Attribution: patent US20100298141A1

- Test system: crabgrass
- EXPERIMENT_SUMMARY: Test C pre-/postemergence test
- Type: in vivo, Digitaria sanguinalis
- CONDITION_DESCRIPTION: 31 g ai/ha, Preemergence; scale 0 to 100
ENDPOINT: Crabgrass, Large plant response rating
// print number alone

// below: answered compounds
INSERT INTO assay_data (compound, endpoint, assay_value) VALUES
  ('CC(c1c(C(F)(F)F)nn(C)c1Cl)S(=O)(=O)c1cccc[n+]1[O-] (stereo not shown)', 'Crabgrass, Large plant response rating', 100),
  ('Cc1cc[n+]([O-])c(S(=O)(=O)C(C)c2c(C(F)(F)F)nn(C)c2OC(F)F)c1 (stereo not shown)', 'Crabgrass, Large plant response rating', 100),
  ('Cc1cc[n+]([O-])c([S+]([O-])Cc2c(C(F)(F)F)nn(C)c2OC(F)F)c1 (stereo not shown)', 'Crabgrass, Large plant response rating', 0);

Now let's try a different one.
Query string: Give the measured Crabgrass, Large plant response rating for Cn1nc(C(F)(F)F)c(C[S+]([O-])c2cccc[n+]2[O-])c1Cl (stereo not shown)
Result string: 90

====

- Test system: crabgrass
- EXPERIMENT_SUMMARY: Test A pre-/postemergence greenhouse test
- Type: in vivo, Digitaria sanguinalis
- CONDITION_DESCRIPTION: Preemergence, 125 g ai/ha; 0 to 100 scale, 0 no effect, 100 complete control
The entries below come with measured Crabgrass, Large plant response rating values attached.
// print number alone

// below: answered molecules
INSERT INTO measurements (molecule, assay_value) VALUES
  ('Cc1cc[n+]([O-])c(S(=O)(=O)Cc2c(C(F)(F)F)nn(C)c2OCC(F)(F)F)c1', 90),
  ('CC(Oc1c(CS(=O)(=O)c2ccc(Cl)c[n+]2[O-])c(C(F)(F)F)nn1C)C(F)(F)F (centres unmarked)', 20),
  ('Cc1cc[n+]([O-])c(S(=O)(=O)Cc2c(C(F)(F)F)nn(C)c2OCC(F)F)c1', 90),
  ('CCn1nc(C(F)(F)F)c(C(C)S(=O)(=O)c2cccc[n+]2[O-])c1OCC(F)(F)F (centres unmarked)', 40),
  ('Cc1cc[n+]([O-])c(S(=O)(=O)Cc2c(C(F)(F)F)nn(C)c2Cl)c1', 70);

Query string: Give the measured Crabgrass, Large plant response rating for O=S(=O)(Cc1c(C(F)(F)F)nn(CC(F)(F)F)c1Cl)c1cccc[n+]1[O-]
Result string: 60

Query string: Give the measured Crabgrass, Large plant response rating for Cn1nc(C(F)(F)F)c(C[S+]([O-])c2ccc(Br)c[n+]2[O-])c1OC(F)F (racemic)
Result string: 80

Query string: Give the measured Crabgrass, Large plant response rating for Cc1ccc[n+]([O-])c1[S+]([O-])Cc1c(C(F)(F)F)nn(C)c1OC(F)F (centres unmarked)
Result string: 70

====

- System: giant foxtail
- EXPERIMENT_SUMMARY: Test C pre-/postemergence test
- Assay type: in vivo, Setaria faberii
- CONDITION_DESCRIPTION: 125 g ai/ha, preemergence; scale 0 (no effect) to 100 (complete control)
The entries below come with measured Foxtail, Giant plant response rating values attached.
// print number alone

// below: answered compounds
INSERT INTO measurements (compound, assay_value) VALUES
  ('CC(Oc1c(C[S+]([O-])c2cccc[n+]2[O-])c(C(F)(F)F)nn1C)C(F)(F)F (stereo not shown) [Compound 77]', 100),
  ('Cn1nc(OC(F)F)c(CS(=O)(=O)c2cccc[n+]2[O-])c1C(F)(F)F [Compound 80]', 98),
  ('Cn1nc(C(F)(F)C(F)(F)F)c(C[S+]([O-])c2cccc[n+]2[O-])c1OCC(F)(F)F (stereo not shown) [Compound 79]', 80);

Now let's try a different one.
Query string: Give the measured Foxtail, Giant plant response rating for Cn1nc(C(F)(F)C(F)(F)F)c(C[S+]([O-])c2ccc(Cl)c[n+]2[O-])c1OCC(F)(F)F (stereo not shown) [Compound 92]
Result string: 100

====

- Tested on: duck salad
- EXPERIMENT_SUMMARY: Test C flooded paddy test
- Type: in vivo, Heteranthera limosa
- CONDITION_DESCRIPTION: Flood, 31 g ai/ha; scale 0 to 100 (0 no effect, 100 complete control)
Mark Condition not met for Plant response rating, Ducksalad values under 20, and Condition met for everything at or above.

Reference set (4 entries):
INSERT INTO assay_data (compound, label) VALUES
  ('Cn1nc(C(F)(F)F)c(C[S+]([O-])c2cccc[n+]2[O-])c1OCC(F)(F)F (racemic) [Compound 28]', 'Condition met'),
  ('Cc1cc[n+]([O-])c([S+]([O-])Cc2c(C(F)(F)F)nn(C)c2OCC(F)(F)F)c1 (racemic) [Compound 30]', 'Condition met'),
  ('Cn1nc(C(F)(F)F)c(C[S+]([O-])c2c(F)ccc[n+]2[O-])c1Cl (stereo not shown) [Compound 52]', 'Condition not met'),
  ('Cn1nc(C(F)(F)F)c(C[S+]([O-])c2ccc(Cl)c[n+]2[O-])c1Cl (racemic) [Compound 17]', 'Condition met');

Query string: Could you tell me if the measured Plant response rating, Ducksalad of Cn1nc(C(F)(F)F)c(C[S+]([O-])c2cc(Br)cc[n+]2[O-])c1Cl (racemic) [Compound 35] reaches 20 or more?
Result string: Condition met

Query string: Could you tell me if the measured Plant response rating, Ducksalad of Cn1nc(C(F)(F)F)c(C[S+]([O-])c2cc(Cl)cc[n+]2[O-])c1Cl (racemic) [Compound 39] reaches 20 or more?
Result string: Condition met

====

- Test system: morningglory
- EXPERIMENT_SUMMARY: Test C pre-/postemergence test
- Format: in vivo, Ipomoea coccinea
- CONDITION_DESCRIPTION: preemergence, 250 g ai/ha; scale 0 (no effect) to 100 (complete control)
ENDPOINT: Morningglory plant response rating
// print number alone

INSERT INTO results (compound, target_desc, assay_value) VALUES
  ('Cc1cc[n+]([O-])c(S(=O)(=O)Cc2c(C(F)(F)F)nn(C)c2OC(C)C(F)(F)F)c1 (stereo not drawn)', 'morningglory', 100),
  ('Cn1nc(C(F)(F)F)c(CS(=O)(=O)c2cccc[n+]2[O-])c1OCC(F)F', 'morningglory', 85),
  ('CCc1cc[n+]([O-])c([S+]([O-])Cc2c(C(F)(F)F)nn(C)c2OC(F)F)c1 (stereo not drawn)', 'morningglory', 100),
  ('CC(Oc1c(C[S+]([O-])c2cccc[n+]2[O-])c(C(F)(F)F)nn1C)C(F)(F)F (stereo not drawn)', 'morningglory', 100),
  ('Cn1nc(C(F)(F)F)c(C[S+]([O-])c2ccc(Cl)c[n+]2[O-])c1OCC(F)F (stereo not drawn)', 'morningglory', 100);

Query string: Give the measured Morningglory plant response rating for CC(C)c1cc[n+]([O-])c([S+]([O-])Cc2c(C(F)(F)F)nn(C)c2OC(F)F)c1 (stereo not drawn)
Result string: 100

Query string: Give the measured Morningglory plant response rating for Cn1nc(C(F)(F)F)c(C(Cl)S(=O)(=O)c2cccc[n+]2[O-])c1OCC(F)(F)F (racemic)
Result string: 75

Query string: Give the measured Morningglory plant response rating for CCc1cc[n+]([O-])c(S(=O)(=O)Cc2c(C(F)(F)F)nn(C)c2OCC(F)(F)F)c1
Result string: 100

Query string: Give the measured Morningglory plant response rating for CC(Oc1c(CS(=O)(=O)c2cccc[n+]2[O-])c(C(F)(F)F)nn1C)C(F)(F)F (stereo not drawn)
Result string: 100

====

- System: goosegrass
- EXPERIMENT_SUMMARY: Test G preemergence test
- Format: in vivo, Eleusine indica
- CONDITION_DESCRIPTION: 62 g ai/ha, scale 0 to 100
ENDPOINT: Plant response rating, Goosegrass
// print number alone

// below: answered compounds
INSERT INTO assay_data (compound, target_desc, assay_value) VALUES
  ('Cc1cc[n+]([O-])c(S(=O)(=O)C(C)c2c(C(F)(F)F)nn(C)c2Cl)c1 (racemic) [Compound 14]', 'goosegrass', 95),
  ('Cc1cc[n+]([O-])c(S(=O)(=O)C(Cl)c2c(C(F)(F)F)nn(C)c2Cl)c1 (racemic) [Compound 22]', 'goosegrass', 100),
  ('Cn1nc(C(F)(F)F)c(C[S+]([O-])c2cccc[n+]2[O-])c1OC(F)F (centres unmarked) [Compound 3]', 'goosegrass', 80),
  ('Cn1nc(C(F)(F)F)c(CS(=O)(=O)c2cccc[n+]2[O-])c1OC(F)F [Compound 4]', 'goosegrass', 95);

Now let's try a different one.
Query string: Give the measured Plant response rating, Goosegrass for Cn1nc(C(F)(F)F)c(CS(=O)(=O)c2ccc(Cl)c[n+]2[O-])c1OC(F)F [Compound 7]
Result string: 90
